- System: SH-SY5Y cells
- assay: Neuroprotection against rotenone/oligomycin A, pre-incubation model, MTT
- Format: cell-based
- condition.details: Homo sapiens, compound 1 μM pre-incubation 24 h, then Rot/Olig (30/10 μM), read-out: % Survival
Mark YES only when viability at 1 µM stays strictly below 70%. Values equal to the cut-off are NO.

// query Dear reviewer, please state whether CC(=O)NCCc1c[nH]c2ccc(OC(=O)/C=C/c3cccc(C(F)(F)F)c3)cc12 [Compound 14] has viability at 1 µM strictly beneath 70%.
// result NO

// query Quick one: CC(=O)NCCc1c[nH]c2ccc(OC(=O)/C=C/c3ccc(Cl)cc3)cc12 [Compound 11]
// result NO

// query Please give the result for CC(=O)NCCc1c[nH]c2ccc(OC(=O)/C=C/c3ccc(C)cc3)cc12 [Compound 3] too.
// result YES

// query Proceed to CC(=O)NCCc1c[nH]c2ccc(OC(=O)/C=C/c3ccccc3C(F)(F)F)cc12 [Compound 13]
// result YES

---

Record form. Attribute: fold induction at 30 µM. Fill in for each entry.
- System: Nrf2 transcription factor (Nrf2-ARE)
- assay: Nrf2-ARE induction, luciferase activity in AREc32 (MCF7 cells stably transfected with ARE-LUC)
- Type: cell-based
- condition.details: Homo sapiens, 30 μM, 24 h, basal = 1, read-out: Relative Luciferase activity (response versus basal)
Give bare numbers.

Here's what some known entries look like.
CC(=O)NCCc1c[nH]c2ccc(OC(=O)/C=C/c3ccc(C)cc3)cc12	2.03
CC(=O)NCCc1c[nH]c2ccc(OC(=O)/C=C/c3ccc(C(F)(F)F)cc3)cc12	4.99

Please supply fold induction at 30 µM for each of the following items, keeping them in order.
1. COc1ccccc1/C=C/C(=O)Oc1ccc2[nH]cc(CCNC(C)=O)c2c1
2. CC(=O)NCCc1c[nH]c2ccc(OC(=O)/C=C/c3ccccc3C(F)(F)F)cc12
3. COc1cccc(/C=C/C(=O)Oc2ccc3[nH]cc(CCNC(C)=O)c3c2)c1
4. CC(=O)NCCc1c[nH]c2ccc(OC(=O)/C=C/c3ccc(Cl)c(Cl)c3)cc12
5. CC(=O)NCCc1c[nH]c2ccc(OC(=O)/C=C/c3ccc(Br)cc3)cc12
6. COc1cc(/C=C/C(=O)Oc2ccc3[nH]cc(CCNC(C)=O)c3c2)ccc1O

// result
1: 2.01; 2: 1.79; 3: 1.63; 4: 1.43; 5: 3.12; 6: 1.83

Please give fold induction at 30 µM for each item listed below.
1. COc1ccc(/C=C/C(=O)Oc2ccc3[nH]cc(CCNC(C)=O)c3c2)cc1
2. CC(=O)NCCc1c[nH]c2ccc(OC(=O)/C=C/c3cccc(C(F)(F)F)c3)cc12

// result
1: 3.4; 2: 1.64

Consider the following items and state reported fold induction at 30 µM for each.
1. CC(=O)NCCc1c[nH]c2ccc(OC(=O)/C=C/c3ccc(Cl)cc3)cc12
2. C/C=C/C(=O)Oc1ccc2[nH]cc(CCNC(C)=O)c2c1

// result
1. 1.59
2. 12.1

---

I'd be grateful if you could share measured percent protection against toxin-induced cell death at 1 µM for these entries.
- Tested on: SH-SY5Y cells
- assay: Neuroprotection against rotenone/oligomycin A, pre-incubation model, MTT
- Type: cell-based
- condition.details: Homo sapiens, compound 1 μM pre-incubation 24 h, then Rot/Olig (30/10 μM)
One number for each entry, in %.

COc1ccccc1/C=C/C(=O)Oc1ccc2[nH]cc(CCNC(C)=O)c2c1	19
COc1cc(/C=C/C(=O)Oc2ccc3[nH]cc(CCNC(C)=O)c3c2)ccc1O	37
CC(=O)NCCc1c[nH]c2ccc(OC(=O)/C=C/c3ccccc3C(F)(F)F)cc12	22.1
CC(=O)NCCc1c[nH]c2ccc(OC(=O)/C=C/c3ccccc3)cc12	34.7
C/C=C/C(=O)Oc1ccc2[nH]cc(CCNC(C)=O)c2c1	28.5
COc1ccc(/C=C/C(=O)Oc2ccc3[nH]cc(CCNC(C)=O)c3c2)cc1	29.8
CC(=O)NCCc1c[nH]c2ccc(OC(=O)/C=C/c3ccc(Cl)c(Cl)c3)cc12	25.3
CC(=O)NCCc1c[nH]c2ccc(OC(=O)/C=C/c3ccc(C)cc3)cc12	20.5
CC(=O)NCCc1c[nH]c2ccc(OC(=O)/C=C/c3cccc(C(F)(F)F)c3)cc12	34.9
CC(=O)NCCc1c[nH]c2ccc(OC(=O)/C=C/c3ccc(O)cc3)cc12	32.5

Give percent protection against toxin-induced cell death at 1 µM for each listed item.
1. CC(=O)NCCc1c[nH]c2ccc(OC(=O)/C=C/c3ccc(Br)cc3)cc12
2. CC(=O)NCCc1c[nH]c2ccc(OC(=O)/C=C/c3ccc(Cl)cc3)cc12
3. COc1cccc(/C=C/C(=O)Oc2ccc3[nH]cc(CCNC(C)=O)c3c2)c1

// result
30.2
33.5
27.1
